Tested on: Liver microsomes
Assay: Metabolic stability in human liver microsomes in presence of NADPH and UDPGA
Type: ADME, Microsome
Measured parameter: Stability (µL/min/mg)
// units = µL/min/mg; emit number, no label

Request: For the molecule CN(C)C(=O)C(=O)N(C)[C@H]1CCCCn2c1nc(C(=O)NCc1ccc(F)cc1)c(O)c2=O , report Stability.
Response: 3

====

Experiment: Volume of distribution at steady state in dog at 1 mg/kg, iv or 4 mg/kg, po
Type: ADME, organism-based, Canis lupus familiaris
Conditions: in vivo, read-out: Vdss
Measured parameter: Vd
The reply must contain the numeric value and, after it, the unit.

Request: For the compound CN(C)C(=O)C(=O)N(C)[C@H]1CCCn2c1nc(C(=O)NCc1ccc(F)cc1)c(O)c2=O , report Vd.
Response: 1.2 L/kg

====

Assay: Plasma clearance in rat at 3 mg/kg, iv or 10 mg/kg, po
Type: ADME, organism-based
Measured parameter: clearance (mL/min/kg)
// units = mL/min/kg; emit number, no label

Request: For the compound CN(C)C(=O)C(=O)N(C)[C@H]1CCCCn2c1nc(C(=O)NCc1ccc(F)cc1)c(O)c2=O , report clearance.
Response: 7

====

Assay: AUC in rat at 10 mg/kg, po
Details: plasma
Measured parameter: AUC (µM·h)
// units = µM·h; emit number, no label

Request: For the compound CN(C)C(=O)C(=O)N(C)[C@H]1CCCCn2c1nc(C(=O)NCc1ccc(F)cc1)c(O)c2=O , report AUC.
Response: 37

====

Biological target: DNA polymerase alpha catalytic subunit (Homo sapiens)
Sequence (P09884 whole entry): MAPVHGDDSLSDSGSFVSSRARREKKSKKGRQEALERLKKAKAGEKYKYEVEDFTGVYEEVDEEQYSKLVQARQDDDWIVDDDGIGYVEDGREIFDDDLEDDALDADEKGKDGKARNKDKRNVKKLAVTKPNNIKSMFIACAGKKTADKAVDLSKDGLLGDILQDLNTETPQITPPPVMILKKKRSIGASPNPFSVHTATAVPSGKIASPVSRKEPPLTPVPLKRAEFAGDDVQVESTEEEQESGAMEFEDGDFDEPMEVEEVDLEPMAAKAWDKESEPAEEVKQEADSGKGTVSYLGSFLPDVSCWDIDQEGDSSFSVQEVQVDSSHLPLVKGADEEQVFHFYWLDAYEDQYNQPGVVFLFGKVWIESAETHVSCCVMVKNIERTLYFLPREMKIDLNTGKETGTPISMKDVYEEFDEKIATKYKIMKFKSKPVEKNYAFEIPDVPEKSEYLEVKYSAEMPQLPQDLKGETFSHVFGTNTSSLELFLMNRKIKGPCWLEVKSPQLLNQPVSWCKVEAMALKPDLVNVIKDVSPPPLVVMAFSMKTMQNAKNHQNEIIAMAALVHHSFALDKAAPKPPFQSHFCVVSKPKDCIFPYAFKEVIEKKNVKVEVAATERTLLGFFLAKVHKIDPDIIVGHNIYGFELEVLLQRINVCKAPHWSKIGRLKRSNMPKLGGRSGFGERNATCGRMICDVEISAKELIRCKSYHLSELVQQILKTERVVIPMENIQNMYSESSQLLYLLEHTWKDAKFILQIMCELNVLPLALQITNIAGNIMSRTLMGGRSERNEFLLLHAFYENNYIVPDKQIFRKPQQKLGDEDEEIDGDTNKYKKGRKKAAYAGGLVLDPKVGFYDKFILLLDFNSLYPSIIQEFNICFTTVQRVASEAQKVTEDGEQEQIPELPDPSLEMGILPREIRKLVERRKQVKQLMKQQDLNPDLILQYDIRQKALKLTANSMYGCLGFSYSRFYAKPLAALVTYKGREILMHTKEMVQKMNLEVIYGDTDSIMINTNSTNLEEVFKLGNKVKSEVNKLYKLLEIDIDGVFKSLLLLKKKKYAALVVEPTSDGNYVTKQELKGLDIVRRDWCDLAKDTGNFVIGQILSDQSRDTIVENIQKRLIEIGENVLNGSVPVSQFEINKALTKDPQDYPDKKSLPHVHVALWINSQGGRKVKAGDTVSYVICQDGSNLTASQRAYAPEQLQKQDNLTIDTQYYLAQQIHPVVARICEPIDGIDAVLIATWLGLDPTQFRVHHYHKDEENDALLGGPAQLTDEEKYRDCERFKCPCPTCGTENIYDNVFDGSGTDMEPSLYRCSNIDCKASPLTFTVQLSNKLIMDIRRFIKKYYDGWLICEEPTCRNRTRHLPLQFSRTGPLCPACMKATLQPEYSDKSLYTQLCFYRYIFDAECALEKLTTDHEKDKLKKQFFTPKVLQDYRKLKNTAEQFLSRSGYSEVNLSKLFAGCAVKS
Assay: Inhibition of human DNA polymerase alpha
pIC50: −log10 of the molar value.
Measured parameter: pIC50

Request: Please respond with reported pIC50 (system DNA polymerase alpha catalytic subunit (Homo sapiens)) for CN(C)C(=O)C(=O)N(C)[C@H]1CCCCn2c1nc(C(=O)NCc1ccc(F)cc1)c(O)c2=O .
Response: < 5.00

Request: Please respond with reported pIC50 (system DNA polymerase alpha catalytic subunit (Homo sapiens)) for CN(C)S(=O)(=O)N(C)[C@@H]1CCCn2c1nc(C(=O)NCc1ccc(F)cc1)c(O)c2=O .
Response: < 3.70
